- Test system: SBK1
- assaySetup: concentration: 1 μM, replicates: in singlicate; n = 1
measuredAttribute: %Inh (%)
I only need the number, in %, no unit after it.

Example entries and their recorded answers appear below.
- smilesCode: "O=C(Nc1ccccc1)Nc1ccc(Oc2ccc3nccn3n2)cc1"
  %Inh, %: 0
- smilesCode: "Cc1cc(N2CCC(NS(=O)(=O)c3ccc(F)cc3)CC2)nc(Nc2cccc(C#N)c2)n1.O=C(O)C(F)(F)F"
  %Inh, %: 0
- smilesCode: "COc1ccc(NC(=O)c2ccc(-c3cc(-c4nnc(C)o4)ccc3C)cc2)cc1"
  %Inh, %: 26
- smilesCode: "NC(=O)c1sc(-n2cnc3ccccc32)cc1OCc1ccccc1F"
  %Inh, %: 21

Now for the compound whose %Inh we want.
query: Param readout = %Inh; param system = SBK1; param query = Nc1nc(-c2cccnc2)c(-c2ccnc3ccccc23)s1 ; response: value;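 note: KINOMEscan kinase panel screen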
result: 17

# credit: paper PMC5540273
